test: Ratio of AUC (0 to infinity) in brain to AUC (0 to infinity) in plasma in Long Evans rat at 10 mg/kg, po; assay type: ADME, organism-based; design: dose 10 mg/kg, route oral; conditions: brain and plasma
property.label: Kp

>>> print(df.to_string())
                                 cpd_smiles   val
0  CS(=O)(=O)c1cccc(Oc2cccc(-c3c(C(N)=O)cnc4c(Cl)cccc34)c2)c1  0.08

---

assay: Cmax in Long Evans rat plasma at 10 mg/kg, po; type: ADME, organism-based; parameters: dose 10 mg/kg, route oral
property.label: Cmax (ng/mL)

                                 cpd_smiles  property_label   val
0  CS(=O)(=O)c1cccc(Oc2cccc(-c3c(C(N)=O)cnc4c(Cl)cccc34)c2)c1            Cmax  1270
